Protein target, amino acids: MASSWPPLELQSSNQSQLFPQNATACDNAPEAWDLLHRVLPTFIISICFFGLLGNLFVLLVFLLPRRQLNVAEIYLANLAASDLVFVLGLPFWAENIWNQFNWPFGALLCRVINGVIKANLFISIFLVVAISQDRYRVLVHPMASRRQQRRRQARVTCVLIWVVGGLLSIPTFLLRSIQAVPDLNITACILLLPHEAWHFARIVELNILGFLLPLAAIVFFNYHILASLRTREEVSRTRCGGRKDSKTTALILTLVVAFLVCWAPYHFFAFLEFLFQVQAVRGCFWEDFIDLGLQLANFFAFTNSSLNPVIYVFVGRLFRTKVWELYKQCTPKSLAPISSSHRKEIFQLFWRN
Quantity Name: log10 Ki (log10 of the value in nM)
Lab note - Ki converted to log10 from values in nM.

input: May I ask what log10 Ki has been recorded for CN(C)CCCN(CCCN(C)C)S(=O)(=O)c1ccc(NCC(c2ccccc2)c2ccccc2)c([N+](=O)[O-])c1 ?
output: 2.36

input: Now this one: CN(C)CCCN(CCCN(C)C)S(=O)(=O)c1ccc(NC(c2ccccc2)c2ccccc2)c([N+](=O)[O-])c1
output: 3.48

input: Now this one: CN(C)CCCN(CCCN(C)C)C(=O)CCNS(=O)(=O)c1ccc(NCC(c2ccccc2)c2ccccc2)c([N+](=O)[O-])c1
output: 2.15

input: Now this one: CC(C)N1CCN(C(=O)C2CCN(S(=O)(=O)c3ccc(NCC(c4ccccc4)c4ccccc4)c(C(=O)N4CCOCC4)c3)CC2)CC1
output: 1.00

input: Now this one: CN(C)CCCN(CCCN(C)C)C(=O)CCNS(=O)(=O)c1ccc(NCC(c2ccccc2)c2ccccc2)c(C(=O)N2CCOCC2)c1
output: 1.00

input: Now this one: CN(C)CCCN(CCCN(C)C)C(=O)C1CCN(S(=O)(=O)c2ccc(NCC(c3ccccc3)c3ccccc3)c(C(=O)N3CCOCC3)c2)CC1
output: 0.00
